- tested system: T1, Human HEVM recombinant protein (Sino Biological, 10334-H02H) (human, UniProt Q92956 39-202)
- T1 construct: construct known only by catalogue number; also called HVEM; human HVEM
- T1 sequence (looked up): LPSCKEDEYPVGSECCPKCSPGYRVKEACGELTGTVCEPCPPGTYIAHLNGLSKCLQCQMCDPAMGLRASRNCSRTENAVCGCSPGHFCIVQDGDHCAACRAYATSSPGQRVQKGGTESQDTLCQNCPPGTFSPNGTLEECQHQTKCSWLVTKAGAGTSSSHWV
- assay: competition ELISA, competitor BTLA-His
measured endpoint: pIC50
To interpret pIC50, take it as minus log10 of a concentration measured in moles per litre.

Recorded pIC50 for Ab_079 (H5S20-22A18A) (antibody, V domains shown, also called Ab_79) VH: EVQLQQSGAELVKPGASVKLSCTASGFNIKDTYMHWVKQRPEQGLEWIGRIDPANGNTKYAPKFQGKATITADTSSNTAYLQLSSLTSEDTAVYYCARSFGNYFDYWGQGTTLTVSS VL: NIVLTQSPASLAVSLGQRATISCRASESVDSYGNSFMHWYQQKPGQPPKLLIYLASNLESGVPARFSGSGSRTDFTLTIDPVEADDAATYYCQQNYADPWTFGGGTKLEIK , please?
7.96
